B1: TPR 5TU (parent)
chain: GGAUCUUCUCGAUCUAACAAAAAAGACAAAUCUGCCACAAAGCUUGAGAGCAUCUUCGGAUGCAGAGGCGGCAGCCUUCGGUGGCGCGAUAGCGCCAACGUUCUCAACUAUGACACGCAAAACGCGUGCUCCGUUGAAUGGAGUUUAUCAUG

Variants of: B1
assay_remarks: polymerase ribozyme fitness, log enrichment relative to wild type (log ratio); higher = more active; in vitro selection for triplet polymerase activity
This sample holds only a part of the variants without activity.
Below, each entry is listed alongside its reported polymerase ribozyme fitness (log ratio).

mutation_spec | polymerase ribozyme fitness (log ratio)
A16C A21G C54A C95A | -3.07
U6C U13G C43G C76U U90A U151G | ≤ -4.2
C54U C93G | -3.72
C10A C69U | ≤ -4.2
U6C C87A | ≤ -4.2
U61G C76G C123U | ≤ -4.2
A12G C54U U61A C72A C96U A98U C99A A142C | ≤ -4.2
U6C A60G G117U | -1.75
A37C G50U G59U G86U | -2.65
U15A A16G G58U C69G C85U A89U C96U C108U | ≤ -4.2
G11U C96G | -1.31
A26C G83A G126A A137G | ≤ -4.2
C27U A40C G59C G92C A98G C108U C132A U151G | ≤ -4.2
A40C C75G C85A G141U | ≤ -4.2
A16U A41G A47C C76G G88C G94C A110C U134A G140A G141C A147C | ≤ -4.2

Data provenance is the RNAGym collection of RNA variant scans (doi:10.1073/pnas.2313332121).
